Exercise: state measured koff for each of the binders provided.
- Assay Target: T1, recombinant human ILT4 (LILRB2) (human, UniProt Q8N423 22-460)
- T1 construct: Bought protein (Acro Biosystems or R&D Systems); also called ILTR4
- T1 sequence (Q8N423 other isoform, or with tags, fused parts or gaps limits assumed): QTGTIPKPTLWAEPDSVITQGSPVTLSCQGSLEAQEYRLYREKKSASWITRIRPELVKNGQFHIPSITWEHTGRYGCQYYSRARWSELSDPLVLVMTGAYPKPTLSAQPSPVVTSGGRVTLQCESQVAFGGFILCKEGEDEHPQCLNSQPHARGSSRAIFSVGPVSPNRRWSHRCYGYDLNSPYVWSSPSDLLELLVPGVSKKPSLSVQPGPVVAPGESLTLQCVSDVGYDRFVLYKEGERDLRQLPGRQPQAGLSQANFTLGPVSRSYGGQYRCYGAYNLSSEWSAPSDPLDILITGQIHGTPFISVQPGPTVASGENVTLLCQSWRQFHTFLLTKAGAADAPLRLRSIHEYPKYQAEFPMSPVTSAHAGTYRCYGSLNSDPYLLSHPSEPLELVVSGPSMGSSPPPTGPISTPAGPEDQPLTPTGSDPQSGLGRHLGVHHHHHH
- Assay Notes: SPR, high resolution kinetics, triplicate, LALA antibody
Give bare numbers, in s⁻¹.

binder="Hz156.03-LALA (antibody, human IgG1, kappa, L234A L235A, V domains shown, Humanized L156S3, human IgG1 L234A/L235A, kappa) VH: QVQLVQSGAEVKKPGSSVKVSCKASGYTFTDYYMNWVRQAPGQGLEWIARIYPGVYRTHYNEKFKDRVTLTADKSTSTAYMELSSLRSEDTAVYYCARSGYYGGTYEEDAMDYWGQGTTVTVSS VL: DIQMTQSPSSLSASVGDRVTITCRASENIYSNLAWYQQKPGKAPKLLVYAATSLADGVPSRFSGSGSGTDYTLTISSLQPEDFATYYCQNFWDTPYTFGQGTKVEIKR" readout_type=koff measured_result=1.83e-05

Dear colleague, could you send me koff for each of the items below? Thanks.
1. Hz180-LALA (antibody, human IgG1, kappa, L234A L235A, V domains shown, Humanized L180S4, human IgG1 L234A/L235A, kappa; also called Humanized 180_04; Hz 180 04) VH: QVQLVQSGAEVKKPGSSVKVSCKASGYSFIGYFMNWMRQAPGQGLEWIGRINPYNGDIFYNQKFKGRVTITVDKSTSTAYMELSSLRSEDTAVYYCARGITVAAGSFDVWGQGTTVTVSS VL: DIVMTQSPDSLAVSLGERATINCRASESVDNYGNTFMHWYQQKPGQPPKLLIYRASNLESGIPDRFSGSGSGTDFTLTISSLQAEDVAVYYCQQSSDHPLTFGGGTKVEIKR
2. Hz45.01-LALA (antibody, human IgG1, kappa, L234A L235A, V domains shown, Humanized L45S4, human IgG1 L234A/L235A, kappa; also called Humanized 45_01; Hu IgG 45_01 LALA) VH: QVQLVQSGAEVKKPGASVKVSCKASGYTFTDYYMNWVRQAPGQRLEWIGDINPNNGGTSYNQKFKGRATITVDTSASTAYMELSSLRSEDTAVYYCARGGAELTGTYWYFDVWGQGTTVTVSS VL: DIQMTQSPSSLSASVGDRVTITCRASENIYSNLAWYQQKPGKAPKVLVYGATNLADGVPSRFSGSGSGTEYTLTISSLQPEDFATYYCQHFWDSPFTFGGGTKVEIKR
3. Hz77-LALA (antibody, human IgG1, kappa, L234A L235A, V domains shown, Humanized L77S2, human IgG1 L234A/L235A, kappa; also called Humanized 77_01; Hz 77 01) VH: QVQLVQSGAEVKKPGSSVKVSCKASGYSFTGYSVNWVRQAPGQGLEWIGRINPYNGDIFNNQKFKGRATITVDKSTSTAYMELSSLRSEDTAVYYCARGTTVGGAWFAYWGQGTLVTVSS VL: DIVMTQSPDSLAVSLGERATINCRASESVDSYGYSFLHWYQQKPGQPPKLLIYLASNLESGIPDRFSGSGSGTDFTLTISSLQAEDVAVYYCQQSNEDLMYTFGGGTKVEIKR

## Output
["6.3e-06", 0.000531, "4.24e-05"]

These measurements were taken from patent US20260167714A1.
